Data provenance is ChEMBL document CHEMBL1143592.

ID/g values, listed per item
target: Somatostatin receptor type 2 (Rattus norvegicus); test: In vivo tumor accumulation was determined in nude mice bearing rat pancreatic AR42J tumor cell expressed with somatostatin receptor type 2;60 min p.i.; (n=3-5); assay type: functional, organism-based; details: AR-42J, tested as the 123I-labelled form

- structure-notation: "C[C@@H](O)[C@H](NC(=O)[C@@H]1CSSC[C@H](NC(=O)[C@H](N)Cc2ccccc2)C(=O)N[C@@H](Cc2ccc(O)c(I)c2)C(=O)N[C@H](Cc2c[nH]c3ccccc23)C(=O)N[C@@H](CCCCN)C(=O)N[C@@H]([C@@H](C)O)C(=O)N1)C(=O)O"
  tested-on: "Somatostatin receptor type 2 (Rattus norvegicus)"
  quantity-unit: "%"
  ID/g: 21.2
- structure-notation: "C[C@@H](O)[C@H](NC(=O)[C@@H]1CSSC[C@H](NC(=O)[C@H](Cc2ccccc2)NC[C@]2(O)OC[C@H](O)[C@@H](O[C@@H]3O[C@@H](CO)[C@@H](O)[C@H](O)[C@@H]3O)[C@@H]2O)C(=O)N[C@@H](Cc2ccc(O)c(I)c2)C(=O)N[C@H](Cc2c[nH]c3ccccc23)C(=O)N[C@@H](CCCCN)C(=O)N[C@@H]([C@@H](C)O)C(=O)N1)C(=O)O"
  tested-on: "Somatostatin receptor type 2 (Rattus norvegicus)"
  quantity-unit: "%"
  ID/g: 11.2
- structure-notation: "C[C@@H](O)[C@H](NC(=O)[C@@H]1CSSC[C@H](NC(=O)[C@H](Cc2ccccc2)NC[C@]2(O)OC[C@H](O)[C@@H](O[C@@H]3O[C@@H](CO)[C@@H](O[C@@H]4O[C@@H](CO)[C@@H](O)[C@H](O)[C@@H]4O)[C@H](O)[C@@H]3O)[C@@H]2O)C(=O)N[C@@H](Cc2ccc(O)c(I)c2)C(=O)N[C@H](Cc2c[nH]c3ccccc23)C(=O)N[C@@H](CCCCN)C(=O)N[C@@H]([C@@H](C)O)C(=O)N1)C(=O)O"
  tested-on: "Somatostatin receptor type 2 (Rattus norvegicus)"
  quantity-unit: "%"
  ID/g: 25.1

====

EC50 values, listed per item
molecular target: UniProtKB P30874; test: Relative effective concentration against human somatostatin receptor type 2 expressed in CHO cells; (n=3); assay type: cell-based; details: cho
Sequence (P30874 whole entry): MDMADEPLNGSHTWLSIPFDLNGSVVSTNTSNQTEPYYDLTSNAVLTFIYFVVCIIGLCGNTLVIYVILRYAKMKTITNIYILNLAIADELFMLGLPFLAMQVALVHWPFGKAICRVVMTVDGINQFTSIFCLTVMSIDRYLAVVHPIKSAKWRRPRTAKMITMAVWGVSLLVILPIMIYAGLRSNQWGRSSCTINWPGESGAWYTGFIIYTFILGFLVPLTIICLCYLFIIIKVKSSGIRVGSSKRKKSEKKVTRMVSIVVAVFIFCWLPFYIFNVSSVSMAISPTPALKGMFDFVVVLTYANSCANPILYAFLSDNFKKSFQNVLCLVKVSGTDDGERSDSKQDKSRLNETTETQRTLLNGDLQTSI

- structure-notation: "C[C@@H](O)[C@H](CO)NC(=O)[C@@H]1CSSC[C@H](NC(=O)[C@@H](Cc2ccccc2)NC[C@]2(O)OC[C@H](O)[C@@H](O[C@@H]3O[C@@H](CO)[C@@H](O)[C@H](O)[C@@H]3O)[C@@H]2O)C(=O)N[C@@H](Cc2ccc(O)c([123I])c2)C(=O)N[C@H](Cc2c[nH]c3ccccc23)C(=O)N[C@@H](CCCCN)C(=O)N[C@@H]([C@@H](C)O)C(=O)N1"
  quantity-unit: "nM"
  EC50: 1.12
- structure-notation: "C[C@@H](O)[C@H](CO)NC(=O)[C@@H]1CSSC[C@H](NC(=O)[C@H](N)Cc2ccccc2)C(=O)N[C@@H](Cc2ccc(O)c([125I])c2)C(=O)N[C@H](Cc2c[nH]c3ccccc23)C(=O)N[C@@H](CCCCN)C(=O)N[C@@H]([C@@H](C)O)C(=O)N1"
  quantity-unit: "nM"
  EC50: 1
- structure-notation: "C[C@@H](O)[C@H](CO)NC(=O)[C@@H]1CSSC[C@H](NC(=O)[C@@H](Cc2ccccc2)NC[C@]2(O)OC[C@H](O)[C@@H](O[C@@H]3O[C@@H](CO)[C@@H](O[C@@H]4O[C@@H](CO)[C@@H](O)[C@H](O)[C@@H]4O)[C@H](O)[C@@H]3O)[C@@H]2O)C(=O)N[C@@H](Cc2ccc(O)c([123I])c2)C(=O)N[C@H](Cc2c[nH]c3ccccc23)C(=O)N[C@@H](CCCCN)C(=O)N[C@@H]([C@@H](C)O)C(=O)N1"
  quantity-unit: "nM"
  EC50: 1.01
- structure-notation: "C[C@@H](O)[C@H](NC(=O)[C@@H]1CSSC[C@H](NC(=O)[C@@H](Cc2ccccc2)NC[C@]2(O)OC[C@H](O)[C@@H](O[C@@H]3O[C@@H](CO)[C@@H](O)[C@H](O)[C@@H]3O)[C@@H]2O)C(=O)N[C@@H](Cc2ccc(O)c([123I])c2)C(=O)N[C@H](Cc2c[nH]c3ccccc23)C(=O)N[C@@H](CCCCN)C(=O)N[C@@H]([C@@H](C)O)C(=O)N1)C(=O)O"
  quantity-unit: "nM"
  EC50: 2.13
- structure-notation: "C[C@@H](O)[C@H](NC(=O)[C@@H]1CSSC[C@H](NC(=O)[C@@H](Cc2ccccc2)NC[C@]2(O)OC[C@H](O)[C@@H](O[C@@H]3O[C@@H](CO)[C@@H](O[C@@H]4O[C@@H](CO)[C@@H](O)[C@H](O)[C@@H]4O)[C@H](O)[C@@H]3O)[C@@H]2O)C(=O)N[C@@H](Cc2ccc(O)c([123I])c2)C(=O)N[C@H](Cc2c[nH]c3ccccc23)C(=O)N[C@@H](CCCCN)C(=O)N[C@@H]([C@@H](C)O)C(=O)N1)C(=O)O"
  quantity-unit: "nM"
  EC50: 1.81
- structure-notation: "C[C@@H](O)[C@H](CO)NC(=O)[C@@H]1CSSC[C@H](NC(=O)[C@@H](Cc2ccccc2)NC[C@]2(O)OC[C@H](O)[C@@H](O)[C@@H]2O)C(=O)N[C@@H](Cc2ccc(O)c([123I])c2)C(=O)N[C@H](Cc2c[nH]c3ccccc23)C(=O)N[C@@H](CCCCN)C(=O)N[C@@H]([C@@H](C)O)C(=O)N1"
  quantity-unit: "nM"
  EC50: 1.43

====

molecular target: Somatostatin receptor type 3 (Homo sapiens, UniProt P32745); assay: In vitro inhibition of [125I][Leu8,D-Trp22,Tyr25] somatostatin 28 binding to human somatostatin receptor type 3 expressed in CCL39 cells; (n=3); type: cell-based; settings: ccl39
Sequence (P32745 whole entry): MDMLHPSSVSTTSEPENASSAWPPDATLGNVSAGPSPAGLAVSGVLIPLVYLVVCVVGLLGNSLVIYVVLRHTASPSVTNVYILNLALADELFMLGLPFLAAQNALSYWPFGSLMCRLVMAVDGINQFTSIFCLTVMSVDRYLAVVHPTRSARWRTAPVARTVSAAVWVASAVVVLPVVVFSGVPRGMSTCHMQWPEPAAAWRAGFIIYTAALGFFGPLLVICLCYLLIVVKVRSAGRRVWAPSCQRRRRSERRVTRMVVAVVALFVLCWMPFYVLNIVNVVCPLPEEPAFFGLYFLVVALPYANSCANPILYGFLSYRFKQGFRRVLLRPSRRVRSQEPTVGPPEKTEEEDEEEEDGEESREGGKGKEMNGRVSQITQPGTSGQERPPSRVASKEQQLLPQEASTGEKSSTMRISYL
pIC50: −log10 of the molar value.
pIC50 values, listed per item
parameter: pIC50

- structure-notation: "C[C@@H](O)[C@H](NC(=O)[C@@H]1CSSC[C@H](NC(=O)[C@@H](Cc2ccccc2)NC[C@@]2(O)OC[C@@H](O)[C@@H](O)[C@@H]2O)C(=O)N[C@@H](Cc2ccc(O)c(I)c2)C(=O)N[C@H](Cc2c[nH]c3ccccc23)C(=O)N[C@@H](CCCCN)C(=O)N[C@@H]([C@@H](C)O)C(=O)N1)C(=O)O"
  tested-on: "Somatostatin receptor type 3 (Homo sapiens, UniProt P32745)"
  qualifier-sign: "<"
  observed-measurement: 6.00
- structure-notation: "C[C@@H](O)[C@H](NC(=O)[C@@H]1CSSC[C@H](NC(=O)[C@@H](Cc2ccccc2)NC[C@]2(O)OC[C@H](O)[C@@H](O[C@@H]3O[C@@H](CO)[C@@H](O)[C@H](O)[C@@H]3O)[C@@H]2O)C(=O)N[C@@H](Cc2ccc(O)c(I)c2)C(=O)N[C@H](Cc2c[nH]c3ccccc23)C(=O)N[C@@H](CCCCN)C(=O)N[C@@H]([C@@H](C)O)C(=O)N1)C(=O)O"
  tested-on: "Somatostatin receptor type 3 (Homo sapiens, UniProt P32745)"
  qualifier-sign: "="
  observed-measurement: 6.12
- structure-notation: "C[C@@H](O)[C@H](CO)NC(=O)[C@@H]1CSSC[C@H](NC(=O)[C@@H](Cc2ccccc2)NC[C@]2(O)OC[C@H](O)[C@@H](O[C@@H]3O[C@@H](CO)[C@@H](O)[C@H](O)[C@@H]3O)[C@@H]2O)C(=O)N[C@@H](Cc2ccc(O)c(I)c2)C(=O)N[C@H](Cc2c[nH]c3ccccc23)C(=O)N[C@@H](CCCCN)C(=O)N[C@@H]([C@@H](C)O)C(=O)N1"
  tested-on: "Somatostatin receptor type 3 (Homo sapiens, UniProt P32745)"
  qualifier-sign: "="
  observed-measurement: 6.61
